# target-of-assay: recombinant guanylate cyclase reporter cell line (Rattus norvegicus, UniProt P20595)
# Sequence (P20595 whole entry): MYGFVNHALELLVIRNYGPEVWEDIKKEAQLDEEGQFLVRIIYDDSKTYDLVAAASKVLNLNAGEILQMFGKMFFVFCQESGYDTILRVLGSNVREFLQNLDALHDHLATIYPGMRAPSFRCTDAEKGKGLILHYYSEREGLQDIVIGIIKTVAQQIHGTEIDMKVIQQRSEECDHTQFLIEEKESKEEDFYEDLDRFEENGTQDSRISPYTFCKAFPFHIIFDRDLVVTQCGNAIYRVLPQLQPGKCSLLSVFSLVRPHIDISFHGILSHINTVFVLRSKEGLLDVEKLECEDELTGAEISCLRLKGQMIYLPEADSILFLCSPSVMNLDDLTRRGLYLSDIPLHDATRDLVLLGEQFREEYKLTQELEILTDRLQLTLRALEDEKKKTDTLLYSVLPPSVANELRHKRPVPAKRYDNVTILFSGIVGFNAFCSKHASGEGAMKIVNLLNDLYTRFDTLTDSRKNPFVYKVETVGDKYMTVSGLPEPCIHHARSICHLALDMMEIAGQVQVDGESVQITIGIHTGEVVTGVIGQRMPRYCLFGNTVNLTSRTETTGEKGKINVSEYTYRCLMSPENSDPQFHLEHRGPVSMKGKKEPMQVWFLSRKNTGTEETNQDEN
# Sequence (P19686 whole entry partner): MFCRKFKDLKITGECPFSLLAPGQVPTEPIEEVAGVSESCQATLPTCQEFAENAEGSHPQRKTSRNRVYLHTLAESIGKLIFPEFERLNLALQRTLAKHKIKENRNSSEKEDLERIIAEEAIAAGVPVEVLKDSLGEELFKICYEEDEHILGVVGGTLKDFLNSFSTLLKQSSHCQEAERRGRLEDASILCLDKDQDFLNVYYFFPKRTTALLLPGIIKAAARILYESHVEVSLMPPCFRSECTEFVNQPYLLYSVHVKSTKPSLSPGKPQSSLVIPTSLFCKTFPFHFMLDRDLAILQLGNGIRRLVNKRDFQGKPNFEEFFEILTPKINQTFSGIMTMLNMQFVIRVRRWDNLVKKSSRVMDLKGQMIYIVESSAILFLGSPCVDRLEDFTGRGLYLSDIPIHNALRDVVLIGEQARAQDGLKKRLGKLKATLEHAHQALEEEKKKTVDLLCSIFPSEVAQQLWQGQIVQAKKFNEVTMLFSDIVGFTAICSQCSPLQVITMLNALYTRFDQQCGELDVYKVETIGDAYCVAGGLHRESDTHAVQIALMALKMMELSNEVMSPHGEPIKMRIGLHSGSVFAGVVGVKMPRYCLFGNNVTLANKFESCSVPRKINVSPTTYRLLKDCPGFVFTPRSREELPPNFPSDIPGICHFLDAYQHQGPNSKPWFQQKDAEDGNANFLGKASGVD
# method: Effect on a recombinant guanylate cyclase reporter cell line
# setup-conditions: half maximal effective concentration; in some cases mean values from individual determinations
Counter-ions that a name gives are not always drawn.
endpoint-label: pEC50
Recall that pEC50 is obtained by taking minus log10 of the concentration measured in molar.

compound | pEC50
CC(C)C(=O)N1CCN(c2ccc(-c3ccc(Cl)cc3N3CCCC(n4ncc(C(=O)O)c4C(F)(F)F)C3)cc2)CC1 (single isomer, unassigned) | 7.81
O=C(O)c1cnn(C2CCCN(c3cc(Cl)ccc3-c3ccc(N4CCN(CCC(F)F)CC4)cc3)C2)c1C(F)(F)F (single isomer, unassigned) [Example 14, hydrochloride] | 8.51
O=C(O)c1cnn(C2CCCN(c3cc(Cl)ccc3-c3ccc(N4CCN(CCOC(F)(F)F)CC4)cc3)C2)c1C(F)(F)F (single isomer, unassigned) [Example 35, hydrochloride] | 7.76
O=C(O)c1cnn(C2CCCN(c3cc(Cl)ccc3-c3ccc(C4CCN(C(=O)C5CC5)CC4)cc3)C2)c1C(F)(F)F (single isomer, unassigned) [Example 84, hydrochloride] | 8.60
CC(C)COC(=O)N1CCN(c2ccc(-c3ccc(Cl)cc3N3CCCC(n4ncc(C(=O)O)c4C(F)(F)F)C3)cc2)CC1 (single isomer, unassigned) | 7.39

IN: Identify the measured pEC50 of CC(C)CN1CCc2cc(-c3ccc(Cl)cc3N3CCCC(n4ncc(C(=O)O)c4C(F)(F)F)C3)ccc2C1 (single isomer, unassigned) [Example 81, hydrochloride] for recombinant guanylate cyclase reporter cell line (Rattus norvegicus, UniProt P20595).
OUT: 7.37

IN: O=C(O)c1cnn(C2CCCN(c3cc(Cl)ccc3-c3ccc(C4CN(CCC(F)(F)F)C4)cc3)C2)c1C(F)(F)F (single isomer, unassigned) [Example 78, hydrochloride] ?
OUT: 7.88

IN: O=C(O)c1cnn(C2CCCN(c3cc(Cl)ccc3-c3ccc(N4CCN(C[C@H]5C[C@H]5F)CC4)cc3)C2)c1C(F)(F)F (single isomer, unassigned) [Example 29, hydrochloride] ?
OUT: 8.16

IN: O=C(O)c1cnn(C2CCCN(c3cc(Cl)ccc3-c3ccc(N4CCN(C(=O)OCC5CCC5)CC4)cc3)C2)c1C(F)(F)F (single isomer, unassigned) ?
OUT: 7.68

IN: CCCC(=O)N1CCN(c2ccc(-c3ccc(Cl)cc3N3CCCC(n4ncc(C(=O)O)c4C(F)(F)F)C3)cc2)CC1 (single isomer, unassigned) ?
OUT: 7.72
